# System: SF-268 CNS
# assay.comment: NCI-60 one-dose screen, 48 h
# study.conditions: 10 µM unless noted
About 83,000 compounds went through this panel and 20% of them were active in at least one assay; those are over-represented in the sample as a whole. Calls of active or inactive are those of the source. How the source made its calls: active means growth percent below 10; inactive means the rest.
Bench note: report the call from Y (active), N (inactive)

As a guide, the following entries are already answered.
compound=COc1ccc(C(=NNS(=O)(=O)c2ccc(C)cc2)c2ccccc2)cc1OC assigned_category=N
compound="Nc1cc(C(=O)N/N=C\\c2ccc(OC(F)F)c(OC3CCCC3)c2)nn1CC(O)c1ccccc1 (configuration not stated)" assigned_category=N
compound="C/C(=C(/C)C1CC1CCNC1CCC(NC(=O)OC(C)(C)C)CC1)c1ccccc1 (configuration not stated)" assigned_category=N
compound=CN(C)CCCOc1ccc(C(=C(c2ccccc2)C2CCCC2)c2ccc(OCCCN(C)C)cc2)cc1 assigned_category=Y
compound=O=C(CSc1nnc(-c2ccc(Cl)cc2)n1-c1ccccc1)Nc1cccc(F)c1 assigned_category=N

Incoming: Tell me the assay call for CS(=O)(=O)c1ccc(/C(=N/N=C(N)N)c2ccc(Cl)cc2)cc1 please.
Outgoing: N

Incoming: Identify the outcome logged in this assay for the compound shown: CN(C)c1ccc(-c2cc(-c3c[nH]c4ccccc34)nc(N)c2C#N)cc1
Outgoing: N

Incoming: Hey, what did the test say about CCOC(=O)c1c(NC(=O)c2ccc(C(F)(F)F)cc2)sc2c(CN3CCN(C)CC3)c(O)ccc12 ?
Outgoing: Y

Incoming: Could you check what this test reported for COc1ccc(C(=O)c2c(N)c(C#N)cn2-c2ccc(Cl)cc2Cl)cc1 ?
Outgoing: N

Incoming: Could you please tell me the result logged for Cc1cc2nc(C(Cl)Cl)nc(-c3ccc(S(=O)(=O)N(C)C)cc3)n2n1 in this assay?
Outgoing: N

Incoming: What is the recorded call for this compound in the test? COc1cc2cc(Oc3ccc(NC(=O)Nc4ccc(F)c(C(F)(F)F)c4)cc3)c(C)nc2cc1OCCN(C)C
Outgoing: N
